test system: T47D; experiment: NCI tumour cell line growth inhibition, 48 h
The source made the active and inactive calls. No stated cut-off is given here; in the data, active = GI50 up to about 1.1 µM and inactive = higher.
Hello, when you answer, please use one of the following outcomes: 1.0 for active, 0.0 for inactive

Tell me the assay call for COC(=O)c1cc2ccc(N)nc2[nH]c1=O please.
0.0

Consider next the molecule CC(=O)OCc1ccc2oc(=O)c(C(=O)Oc3cccc(Cl)c3)cc2c1 in the same way.
0.0

Consider next the molecule CCOC(=O)C1C(c2ccc(O)c(OC)c2)c2c(n[nH]c2O)CC1(C)O (stereo unspecified) in the same way.
0.0

Consider next the molecule CCOC(=O)N1CCC2(CC1)C[C@](Sc1ccccc1)(C(C)=O)[C@H](C)O2 in the same way.
0.0

Consider next the molecule S=c1[nH]c2ccc(Br)cc2c(=S)s1 in the same way.
0.0

Consider next the molecule COc1ccc(/C=C2\OC(=O)C(Cl)=C2c2ccc(OC)c(Cl)c2)cc1 in the same way.
0.0

Consider next the molecule Cc1ccc2oc(=O)c3c(O)c4cccc(OC5OC(C)C6O[C@@H](c7ccccc7)OC6C5OC5OC(C)C(O)C(O)C5O)c4c4oc(=O)c1c2c34 (stereo partly specified) in the same way.
1.0

Consider next the molecule C=CCC(CCC(C)=O)(C(=O)OCC)C(=O)OCC in the same way.
0.0

Consider next the molecule Cc1ccc2c(c1)nc1n2C(N)=Nc2ccccc2S1 in the same way.
0.0

Consider next the molecule CC(=O)Nc1ccc(C(=O)N[C@@H]2C(=O)N3[C@@H]2SC(C)(C)[C@@H]3C(=O)O)cn1 in the same way.
0.0

Consider next the molecule CC(C)(C)c1cc([N+](=O)[O-])cc([N+](=O)[O-])c1O [DINOTERB] in the same way.
0.0

Consider next the molecule Nc1ncnc2c1ncn2C1OC(CO)C(O)C1NS(=O)(=O)c1ccccc1 (stereo unspecified) in the same way.
0.0

Consider next the molecule CCOC(=O)Cn1c(=O)ccn(COCCO)c1=O in the same way.
0.0

Consider next the molecule CCc1ccccc1/N=N/C(=O)NNc1ccccc1CC in the same way.
0.0

Consider next the molecule O=[N+]([O-])c1ccc(/C=N/n2c(CO)nc3ccccc32)o1 in the same way.
0.0

Consider next the molecule N=c1c2c(=S)n(-c3ccccc3)c(=S)n(-c3ccccc3)c2nc(SCCN2CCCC2)n1-c1ccccc1 in the same way.
0.0

Consider next the molecule COc1ccc2c(c1)CC[C@@H]1[C@@H]2CC[C@]2(C)C(=O)/C(=C/c3ccc(C#N)cc3)C[C@@H]12 in the same way.
0.0

Consider next the molecule O=c1oc2ccc(Cl)cc2c2ccccc12 in the same way.
0.0

Consider next the molecule Cc1ccc(S(=O)(=O)OI(O)CC(F)(F)F)cc1 in the same way.
0.0

Consider next the molecule O=[N+]([O-])c1ccc(Cc2nc3cc4ccccc4cc3[nH]2)cc1C(F)(F)F in the same way.
0.0

Consider next the molecule O=C1/C(=C(/Br)I)c2ccccc2-c2ccccc21 in the same way.
0.0

====

test system: K562; test: NCI tumour cell line growth inhibition, 48 h
Calls of active or inactive are those of the source. No stated cut-off is given here; in the data, active = GI50 up to about 1.1 µM and inactive = higher.
For each entry below, report its GI50 value.

Please provide the recorded GI50 for CCOC(=O)C1N(S(=O)(=O)c2ccc(C)cc2)CCC12C(c1ccc(OC)c(OC)c1)=Nc1ccccc12 (stereo not given) , tested on K562.
> 100 µM (inactive)

Consider next the compound COC(=O)C1(C(=O)OC)CC2=C(S(=O)(=O)c3ccccc3)C[C@@H](C#N)[C@H]2C1 in the same way.
> 100 µM (inactive)

Consider next the compound Clc1ccccc1NN(Cc1ccccn1)c1ccccc1Cl in the same way.
17.3 µM (inactive)

Consider next the compound COc1ccc(C(F)(F)F)cc1NC(=O)O/N=C(/Cl)C(C)C in the same way.
1.91 µM (inactive)

Consider next the compound Nc1nc(N)c2cc(-c3ccccc3)cnc2n1 in the same way.
3.36 µM (inactive)

Consider next the compound O=[N+]([O-])c1ccc(/C(=N/c2ccccc2)SS/C(=N\c2ccccc2)c2ccc([N+](=O)[O-])o2)o1 in the same way.
1.34 µM (inactive)

Consider next the compound COc1cc2c3cc1Oc1cc(ccc1O)C[C@@H]1c4c(cc(OC)c(O)c4Oc4ccc(cc4)C[C@@H]3N(C)CC2)CC[N+]1(C)C in the same way.
42 µM (inactive)

Consider next the compound Cc1cccc(NC(=O)c2c(N)[n+]([O-])c3ccccc3[n+]2[O-])c1 in the same way.
5.68 µM (inactive)

Consider next the compound CNC(=S)NC(=S)N(C)C in the same way.
1.75 µM (inactive)

Consider next the compound COc1ccc(Nc2nc3c(N)cc(C(F)(F)F)cc3nc2-c2ccccc2)cc1OC in the same way.
63 µM (inactive)

Consider next the compound CC1=C(/C=C/C(C)=C/C=C/C(C)=C/C(=O)OCC2OC(n3cc(F)c(=O)[nH]c3=O)CC2OC(=O)/C=C(C)/C=C/C=C(C)/C=C/C2=C(C)CCCC2(C)C)C(C)(C)CCC1 (stereo not given) in the same way.
4.66 µM (inactive)

Consider next the compound CCc1ccccc1/N=N/C(=O)NNc1ccccc1CC in the same way.
26.1 µM (inactive)

Consider next the compound CC1=NN(c2nc(N)nc(CC#N)n2)C(C)(C)C1 in the same way.
> 100 µM (inactive)

Consider next the compound N#CC(C(=N/NC(N)=S)/C(=N/NC(N)=S)C(C#N)c1ccc(Cl)cc1)c1ccc(Cl)cc1 (stereo not given) in the same way.
34.9 µM (inactive)

Consider next the compound Nc1nc(N)c2nc(CNc3ccc(C(=O)NC(CCCCNC(=O)c4ccccc4C(=O)O)C(=O)O)cc3)cnc2n1 (stereo not given) in the same way.
0.01 µM (active)

Consider next the compound CC(=O)Nc1ccc(C(=O)N[C@@H]2C(=O)N3[C@@H]2SC(C)(C)[C@@H]3C(=O)O)cn1 in the same way.
> 100 µM (inactive)

Consider next the compound N[C@H](CCC(=O)NCP(=O)(O)O)C(=O)O in the same way.
> 100 µM (inactive)

Consider next the compound Nc1nc2c(c(=O)[nH]1)NC(CO)CN2 (stereo not given) in the same way.
51.3 µM (inactive)

Consider next the compound CCN(CC)CCN(C)CC(C)(C)C(=O)/C=C/c1ccccc1 in the same way.
0.0693 µM (active)

Consider next the compound O=C(O)C1=NN=C(C(=O)O)NN1 in the same way.
72.9 µM (inactive)
